molecular target: recombinant human ALK5 (TGF-βR1) protein (Homo sapiens); assay: Biochemical ALK5 (TGF-βR1) assay to measure pKi (LANCE Ultra ULight kinase assay); details: apparent pKi, converted from pIC50 by Cheng-Prusoff
Sequence (P36897 34-503): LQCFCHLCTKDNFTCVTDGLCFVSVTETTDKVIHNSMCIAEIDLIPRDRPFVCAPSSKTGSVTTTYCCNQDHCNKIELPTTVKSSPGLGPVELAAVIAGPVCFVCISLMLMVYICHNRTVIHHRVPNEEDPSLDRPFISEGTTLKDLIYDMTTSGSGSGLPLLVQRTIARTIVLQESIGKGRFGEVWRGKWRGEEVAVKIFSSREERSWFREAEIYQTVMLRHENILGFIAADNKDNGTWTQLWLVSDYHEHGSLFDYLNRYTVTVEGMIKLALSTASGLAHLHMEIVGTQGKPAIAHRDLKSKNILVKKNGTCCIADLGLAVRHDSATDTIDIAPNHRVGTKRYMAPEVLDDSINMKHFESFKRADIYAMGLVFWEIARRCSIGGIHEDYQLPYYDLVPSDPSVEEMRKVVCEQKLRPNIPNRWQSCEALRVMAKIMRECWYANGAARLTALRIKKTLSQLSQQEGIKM
pKi: −log10 of the molar value.
measured_attribute: pKi

Find the recorded pKi belonging to Cc1cccc(-c2nccc(Nc3ccnc(Nc4ccc(S(=O)(=O)N(C)C5CCNCC5)cc4)n3)n2)n1 [Compound 122] and report it. 9.50 to 10.40

// query pKi value for entry Cc1cccc(-c2nccc(Nc3ccnc(Nc4ccc(N5CCC(N)CC5)c(F)c4)n3)n2)n1 [Compound 343] ≥ 10.50

Please look up its pKi: COC(=O)CCc1ccc(Nc2nccc(Nc3ccnc(-c4cccc(C)n4)n3)n2)cc1 [Compound 517] 8.50 to 9.40

Form field: reported pKi of Cc1cccc(-c2nccc(Nc3ccnc(Nc4ccc(CN5CC(C(=O)O)C5)nc4)n3)n2)n1 [Compound 569] 9.50 to 10.40

// lookup pKi for Cc1cccc(-c2nccc(Nc3ccnc(Nc4ccc(CN5CC6CCC(C5)O6)cc4)n3)n2)n1 [Compound 395] 9.50 to 10.40

Which measured pKi value corresponds to Cc1cccc(-c2nccc(Nc3ccnc(Nc4ccc(C)c(CN5C[C@@H](C)N[C@@H](C)C5)c4)n3)n2)n1 [Compound 81] ? 9.50 to 10.40

Look up pKi for this compound: Cc1cccc(-c2nccc(Nc3ccnc(Nc4ccc(C(=O)OCCN5CCNCC5)nc4)n3)n2)n1 [Compound 552] 9.50 to 10.40

Please look up its pKi: Cc1cccc(-c2nccc(Nc3ccnc(Nc4cccc(CN5CCOCC5)c4)n3)n2)n1 [Compound 141] 9.50 to 10.40

Please report the recorded pKi for COC(=O)C1CN(CCNc2ccc(Nc3nccc(Nc4ccnc(-c5cccc(C)n5)n4)n3)cc2)CCN1 (stereo not drawn) [Compound 369] . 8.50 to 9.40

Quick check: pKi of Cc1cccc(-c2nccc(Nc3ccnc(Nc4ccc(C(=O)OC5CCNCC5)cn4)n3)n2)n1 [Compound 634] ? 7.50 to 8.40

I would be grateful if you could share the reported pKi for Fc1cc(F)c(-c2nccc(Nc3ccnc(Nc4ccc(N5CCNCC5)cc4)n3)n2)cc1Cl [Compound 556] . 9.50 to 10.40

Requested field: pKi. Item: Cc1cccc(-c2nccc(Nc3ccnc(Nc4ccc(CN5CC(C)(N)C5)cc4)n3)n2)n1 [Compound 438] 9.50 to 10.40

What value of measured pKi is listed for Cc1cccc(-c2nccc(Nc3ccnc(Nc4ccc(C(=O)OCC56CNCC5C6)nc4)n3)n2)n1 (stereo not drawn) [Compound 557] ? 9.50 to 10.40

So what's the measured pKi for this one? Cc1cccc(-c2nccc(Nc3ccnc(Nc4ccc(NC(=O)N5C[C@@H](C)N[C@@H](C)C5)cc4)n3)n2)n1 [Compound 435] 9.50 to 10.40

Can you share its pKi? I mean this compound: Cc1cccc(-c2nccc(Nc3ccnc(Nc4ccc(N5CCOCC5)cc4)n3)n2)n1 [Compound 475] 9.50 to 10.40
